Values were extracted from the supplement of paper PMC6555819.

Entries annotated with measured PBM binding z-score
test system: PPARa:RXRa (NR concentration 270 nM, RXRa partner concentration 90 nM); assay: PBM binding z-score (relative to random genomic background probes); higher = stronger binding; sequences stand for … in GC…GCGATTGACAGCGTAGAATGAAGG
No unit in the answer, only the number.

{"columns": ["Macromolecule Sequence", "PBM binding z-score"],
 "data": [
  ["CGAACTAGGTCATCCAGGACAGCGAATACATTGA", 4.82],
  ["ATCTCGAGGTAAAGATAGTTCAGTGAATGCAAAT", 0.727],
  ["ACCTCTAGGTAACCAAGTTCAGTGAATGCCGAAC", 0.625],
  ["ATCGAAAGGTTGACGAGGTGAGTATACACCGTTT", 1.79],
  ["ATATGTAGGTTATCGGTTCATTCAGTTTGCGCAT", 3.91],
  ["CGGACTGGGGCAAGGTTACCATAACGCACAGCCA", 2.67]
]}

Now, please, on to the next sequence.
Reported PBM binding z-score of `TCTTGGAGATCAACAGGAGGTTAAGAAAGATCGA` : 1.44

---

tested on: PPARg DBDmut:RXRa IVT, anti-PPARg (DBD mutation: PPARg1 K132A/R137A, NR concentration 270 nM, RXRa partner concentration 90 nM); test: PBM binding z-score (relative to random genomic background probes); higher = stronger binding; sequences stand for … in GC…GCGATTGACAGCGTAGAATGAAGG
Lab note: anything with PBM binding z-score at or over 0.2 counts as 1 (yes); the rest go in 0 (no).

{"columns": ["Macromolecule Sequence", "Class Name"],
 "data": [
  ["AGTCAATGTTCACTAGGTAACGTAAGATTCAGCT", "1 (yes)"]
]}

// inclusive: PBM binding z-score at least 0.2? input: `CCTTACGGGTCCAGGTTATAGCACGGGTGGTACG` 0 (no)

In plain terms: is recorded PBM binding z-score at least 0.2 for `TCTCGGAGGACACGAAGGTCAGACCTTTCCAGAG` ? 0 (no)

---

test system: RARg homodimer (NR concentration 270 nM); test: PBM binding z-score (relative to random genomic background probes); higher = stronger binding; sequences stand for … in GC…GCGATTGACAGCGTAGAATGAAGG
Measured PBM binding z-score, listed per entry for reference.

Please review the entries below; each comes with its answer.
{"columns": ["Macromolecule Sequence", "PBM binding z-score"],
 "data": [
  ["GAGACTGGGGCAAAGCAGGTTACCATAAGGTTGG", 0.776],
  ["TGAATGAGGTTATAAGATCAGGGACCGTTGCAAA", 0.648],
  ["TCATATAGGAAAATGCTAGGTGAAAGTCCGATCT", 0.133],
  ["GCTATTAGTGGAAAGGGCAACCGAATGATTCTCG", 1.12],
  ["GCTTGTAGAGCAAGGTTAAGAAAGACTAAGCTAA", 0.162]
]}

Input `CATACAGGGTCAGCTAGGCCCGAGTAGGGACGGC` . Output PBM binding z-score: 4.89

Reported PBM binding z-score of `AGTCAAAGTTCAGGACGAGGTTACGTAAAGCACG` : 5.25

---

PBM binding z-score reference
system: RARg homodimer (NR concentration 270 nM); assay: PBM binding z-score (relative to random genomic background probes); higher = stronger binding; sequences stand for … in GC…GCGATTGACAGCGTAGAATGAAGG
I'd appreciate a reply containing only the number, no unit.

Take a look at these entries with their results.
{"columns": ["Macromolecule Sequence", "Measured Target", "PBM binding z-score"],
 "data": [
  ["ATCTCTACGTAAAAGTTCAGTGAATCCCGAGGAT", "RARg homodimer (NR concentration 270 nM)", 2],
  ["TGTCAAAGTTCAGAGGTAACGTAAGTATCCACAC", "RARg homodimer (NR concentration 270 nM)", 4.84],
  ["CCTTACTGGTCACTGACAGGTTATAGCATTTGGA", "RARg homodimer (NR concentration 270 nM)", 1.32]
]}

Summary for this sequence, `TGTCAAAGTTCATAGGTAACGTAAGTATCCACAC` : PBM binding z-score is 5.2

Recorded result, `CTCGAAAGGTCGTGCTCAGTTGAGTATACCAAAC` , PBM binding z-score: 3.63

The sequence identified as `TCTTGTAGATCAAATGTTAAGAAAGCCGAAGCCT` registered its PBM binding z-score at -0.241

For record `ACAGACAGGTGAGTGTAGGTAACTCAGCTGGACG` the listed PBM binding z-score is 0.401

The sequence listed as `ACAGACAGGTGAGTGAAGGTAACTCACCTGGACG` shows PBM binding z-score equal to 0.628

// recorded PBM binding z-score for `CCTGCTAAGTCAATGGTCAGCTAAAGCAGCTCGC` : -0.302

Measured PBM binding z-score of `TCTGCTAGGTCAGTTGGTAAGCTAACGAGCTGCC` : 3.32

// field: PBM binding z-score; key: `CGTCCAAGGTCCAAGGTCAGTGAAGAGATGACGG` ; value = 3.28

---

tested on: RARb:RXRa (NR concentration 270 nM, RXRa partner concentration 90 nM); assay: PBM binding z-score (relative to random genomic background probes); higher = stronger binding; sequences stand for … in GC…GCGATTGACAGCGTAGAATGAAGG
Recorded Endpoint: PBM binding z-score

Worked examples, 2 sequences total:
{"columns": ["Macromolecule Sequence", "PBM binding z-score"],
 "data": [
  ["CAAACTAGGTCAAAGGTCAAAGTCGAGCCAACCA", 5.96],
  ["TCTAGTTGGTCAAAGGTCATACACTCGAAATGCG", 4.73]
]}

PBM binding z-score for `TCTGCTAGGTCAGTTGGTCACCTAACGAGCTGCC` is 3.44

`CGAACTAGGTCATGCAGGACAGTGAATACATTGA` yielded PBM binding z-score of 3.92

The recorded PBM binding z-score for entry `ATCTCTAGGGAAAAGTTCAGTGAATCCCGAGGAT` equals 1.77

Query `TCATATAGGTAAAGGTGAACGTCGAACGATATGA` yields PBM binding z-score of 2.09

sequence `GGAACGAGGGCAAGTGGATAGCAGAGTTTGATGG` , PBM binding z-score observed: 2.65

---

test system: RARb:RXRa (NR concentration 270 nM, RXRa partner concentration 90 nM); assay: PBM binding z-score (relative to random genomic background probes); higher = stronger binding; sequences stand for … in GC…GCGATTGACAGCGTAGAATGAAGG
# reported PBM binding z-score; entries follow

// known answers, use as guide
{"columns": ["Macromolecule Sequence", "PBM binding z-score"],
 "data": [
  ["CCTACTGCGCCAAAAAGGTCATTGATGCCGATAA", 4.05],
  ["ACTTACGGGTCAACGAGGGTATAGCACGCGTATA", 4.05],
  ["CGTCCTAGGTCAATGCTAGGTCAGTGAAAGCATT", 4.06]
]}

// next item, PBM binding z-score requested
Briefly, PBM binding z-score measured for `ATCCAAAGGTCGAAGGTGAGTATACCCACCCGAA` : 3.97

---

tested on: FXR:RXRa (NR concentration 270 nM, RXRa partner concentration 90 nM); experiment: PBM binding z-score (relative to random genomic background probes); higher = stronger binding; sequences stand for … in GC…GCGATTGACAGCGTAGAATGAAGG
Catalogue of PBM binding z-score readings, one per entry.

Guide cases for PBM binding z-score, answers given:
{"columns": ["Macromolecule Sequence", "Result"],
 "data": [
  ["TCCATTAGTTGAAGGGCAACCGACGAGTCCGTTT", 1.27],
  ["GCGACTGGGGCATCAGCAGGTTACTATAACTTAA", 0.0216],
  ["TGAATGAGGTTAAAGAGCAGGGAACGTGGCGTCG", 2.98],
  ["CCTCGGAGGACAACAGGAGGGCAGAGCTGCCAGA", -0.363],
  ["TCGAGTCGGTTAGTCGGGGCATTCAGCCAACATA", -0.133]
]}

The measured PBM binding z-score associated with `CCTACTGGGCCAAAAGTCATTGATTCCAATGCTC` reads -0.29

Recorded result, `AGAATGAGGTTATACGTACATCAGGGAAGAAAGT` , PBM binding z-score: 2.3

Entry under test: `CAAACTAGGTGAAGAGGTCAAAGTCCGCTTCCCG` . Its PBM binding z-score was 4.89

Query `AGAATGAGGTTCTTAAGATCAGGGAATTGCGGTC` yields PBM binding z-score of -0.335

// recorded PBM binding z-score for `CCGACTGGGGCATAAGGTCACCATAAGCCAGCCC` : 3.25

Reported PBM binding z-score of `GCGACTGGGGCAAAGCAGGTTACCATCAGGTTGG` : 0.219

`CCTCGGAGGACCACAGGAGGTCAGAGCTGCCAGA` yielded PBM binding z-score of 0.729

The recorded PBM binding z-score for entry `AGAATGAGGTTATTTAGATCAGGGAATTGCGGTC` equals 2.23

For record `CGTCAAAGTTCCACTAAGGTAACGTAAAGCACGC` the listed PBM binding z-score is 0.0989

The reported PBM binding z-score of the sequence `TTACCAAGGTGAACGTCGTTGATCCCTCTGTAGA` was 0.766

The measured PBM binding z-score associated with `AGAATGAAGTTATTAAGATCAGGGAATTGCGGTC` reads -0.377

# PBM binding z-score (sequence: `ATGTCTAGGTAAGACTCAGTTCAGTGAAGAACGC` ) is -0.0311

Sample `CCTAGCAGGCCAAGGTCACTCAAGCATTTCGCTT` ; PBM binding z-score observed: 3.06

Reported PBM binding z-score ( `CAAACTAGGTCAATGTCAAAGTCGGTTTGTGCCA` ) = 3.38
